Data provenance is ChEMBL document CHEMBL4513216.

Assay: Toxicity liver stage against HepG2, at 10uM
Assay type: cell-based
Set-up: test concentration 10 uM, cell line HepG2-A16-CD81EGFP
Conditions: human, HepG2-A16-CD81EGFP cells; read-out: INHIBITION
value-kind: cytotoxicity at 10 µM (%)
Give the number; % is assumed, so skip it.

# compound, unit-annotation, cytotoxicity at 10 µM
data = [
    ("COc1ccc(CNc2c(C)nn(C(C)C)c2C)cc1", "%", -37.1),
    ("Cn1ccnc1SCCNC(=O)Cn1cnc2ccccc2c1=O", "%", -20.7),
    ("CCc1nc2c(s1)C(N(C)C(=O)c1cc[nH]n1)CCC2 (stereo not drawn)", "%", 7.76),
    ("Cc1cccc(CNCc2c(C)nn(C)c2N2CCOCC2)n1", "%", -10.9),
    ("CN(C)C(CNC(=O)c1cccc(-n2cnnn2)c1)c1ccccc1Cl (stereo not drawn)", "%", -6.08),
]

I have this compound here, O=C(c1cc2c([nH]c1=O)CCC2)N1CCCC1c1ccccn1 (stereo not drawn) , and I need its recorded cytotoxicity at 10 µM. -3.18

I have this compound here, COC(=O)N1CCc2ccccc2C1C(=O)NCc1nc(C)no1 (stereo not drawn) , and I need its recorded cytotoxicity at 10 µM. 3.88

I have this compound here, COc1cc(C)ccc1OCc1nc(C(=O)N2CCCC2)co1 , and I need its recorded cytotoxicity at 10 µM. -42.5

---

Test: Toxicity liver stage against HepG2, at 10uM
Type: cell-based
Design: test concentration 10 uM, cell line HepG2-A16-CD81EGFP
Details: human, HepG2-A16-CD81EGFP cells; read-out: INHIBITION
value-kind: cytotoxicity at 10 µM (%)
Give the number; % is assumed, so skip it.

I have this molecule here, CC(C)C(=O)N1CCN(c2cc(N(C)C)cnn2)CC1 , and I need its recorded cytotoxicity at 10 µM. -6.45

I have this molecule here, CC(C)(CNC(=O)C(C)(C)c1ccccc1F)C(N)=O , and I need its recorded cytotoxicity at 10 µM. 6.38

I have this molecule here, CCc1nnc2n1CC(CNc1cnc3ccccc3n1)CC2 (centres undefined) , and I need its recorded cytotoxicity at 10 µM. -37.4

I have this molecule here, Cn1ccnc1CN1CCN(Cc2ccccc2C#N)CC1 , and I need its recorded cytotoxicity at 10 µM. -3.83

---

Experiment: Toxicity liver stage against HepG2, at 10uM
Type: cell-based
Parameters: test concentration 10 uM, cell line HepG2-A16-CD81EGFP
Details: human, HepG2-A16-CD81EGFP cells; read-out: INHIBITION
value-kind: cytotoxicity at 10 µM
Write the quantity with the unit trailing the number.

Examples from the recorded data:
# molecule, cytotoxicity at 10 µM
rows = [
    ("CN(Cc1cccnc1)C1CC2(CCN(Cc3ccccn3)CC2)C1", "-84%"),
    ("COc1cc(CCO)c(OC)c2c1OCO2", "-5.6%"),
    ("Cc1ccc(CC(=O)N2CCCC(c3cc(C(N)=O)[nH]n3)C2)cn1 (stereo not given)", "-14.2%"),
    ("O=C(Cn1cc(I)cn1)N1CCNC1=O", "1.53%"),
    ("Cc1noc(NCc2ccc(F)cc2F)n1", "-4.49%"),
]

I have this molecule here, C1CC(c2noc(C3CC3)n2)CN(CCOCC2CC2)C1 (stereo not given) , and I need its recorded cytotoxicity at 10 µM. -8.91%

I have this molecule here, COc1cccc(OCC2CCCN(C3CCN(C(C)=O)CC3)C2)c1 (stereo not given) , and I need its recorded cytotoxicity at 10 µM. -18.3%

I have this molecule here, CN1C(=O)CC(c2ccncc2)C12CCN(c1ncccn1)CC2 (stereo not given) , and I need its recorded cytotoxicity at 10 µM. -108%

I have this molecule here, CC[C@H]1CN(C(=O)c2cccnc2)CC[C@H]1CC(=O)NCCOC , and I need its recorded cytotoxicity at 10 µM. 5.26%

I have this molecule here, CN(C)c1cc(CNC(=O)c2cc(F)ccc2F)ccn1 , and I need its recorded cytotoxicity at 10 µM. -8.35%

I have this molecule here, COCC1CC2(CCN(c3ccccn3)CC2)CN1C(C)C (stereo not given) , and I need its recorded cytotoxicity at 10 µM. -110%

I have this molecule here, CNc1cc(C(=O)N(C)Cc2cc(-c3cccs3)n[nH]2)ccn1 , and I need its recorded cytotoxicity at 10 µM. -9.22%

I have this molecule here, Cn1cc(S(=O)(=O)N(Cc2ccc(F)cc2F)C2CC2)cc1C(N)=O , and I need its recorded cytotoxicity at 10 µM. 5.68%

I have this molecule here, Cc1cc(C(=O)NCC(F)(F)F)c2c(C3CCNCC3)noc2n1 , and I need its recorded cytotoxicity at 10 µM. 10.4%

I have this molecule here, Cc1noc(C)c1CNC(=O)c1cn(CCC2CCCCN2)nn1 (stereo not given) , and I need its recorded cytotoxicity at 10 µM. 0.872%

---

# key: entry, value: cytotoxicity at 10 µM
Test: Toxicity liver stage against HepG2, at 10uM
Format: cell-based
Design: test concentration 10 uM, cell line HepG2-A16-CD81EGFP
Conditions: human, HepG2-A16-CD81EGFP cells; read-out: INHIBITION
Give the number; % is assumed, so skip it.

Examples from the recorded data:
# molecule, value-kind, unit-annotation, reported-measurement
measured = [
    ("O=C(N1CCCC1)N1Cc2nccn2CC(Cn2ncccc2=O)C1 (configuration not stated)", "cytotoxicity at 10 µM", "%", 3.39),
    ("CN1C[C@@H](C(=O)NC(C)(C)C)[C@@]2(CCc3ccccc3C(=O)N2)C1", "cytotoxicity at 10 µM", "%", -3.79),
]

I have this molecule here, Cc1cc(-c2cnc(N3CCN(C)CC3)nc2C(C)C)on1 , and I need its recorded cytotoxicity at 10 µM. -5.97

I have this molecule here, Cc1cc(-c2cnc(NCc3cccnc3)nc2C(C)C)on1 , and I need its recorded cytotoxicity at 10 µM. 19.2

I have this molecule here, CCC1(CNCc2ncc[nH]2)CCCC1 , and I need its recorded cytotoxicity at 10 µM. -3.09

I have this molecule here, Cc1ccn(CCNC(=O)C2CCN(S(=O)(=O)c3ccc(F)cc3)C2)n1 (configuration not stated) , and I need its recorded cytotoxicity at 10 µM. -24.5

I have this molecule here, COc1cccc2c1OCC(CNC(=O)CNC(N)=O)C2 (configuration not stated) , and I need its recorded cytotoxicity at 10 µM. -2.93

---

Assay: Toxicity liver stage against HepG2, at 10uM
Type: cell-based
Set-up: test concentration 10 uM, cell line HepG2-A16-CD81EGFP
Settings: human, HepG2-A16-CD81EGFP cells; read-out: INHIBITION
value-kind: cytotoxicity at 10 µM (%)
Give the number; % is assumed, so skip it.

# compound, value-kind, unit-annotation, reported-measurement
data = [
    ("Cc1nc(N2CCC(C)CC2)ncc1-c1cc(O)nc(N2CCCC2)n1", "cytotoxicity at 10 µM", "%", 9.82),
]

I have this compound here, CCc1cnc(N)nc1NC(C)c1ccc(C)c(C)c1 (stereo not drawn) , and I need its recorded cytotoxicity at 10 µM. 21.3

I have this compound here, CSc1[nH]nc(NC(=O)c2ccncc2)c1C#N , and I need its recorded cytotoxicity at 10 µM. 10.6

---

Test: Toxicity liver stage against HepG2, at 10uM
Format: cell-based
Parameters: test concentration 10 uM, cell line HepG2-A16-CD81EGFP
Conditions: human, HepG2-A16-CD81EGFP cells; read-out: INHIBITION
# key: entry, value: cytotoxicity at 10 µM
Write the quantity with the unit trailing the number.

Examples from the recorded data:
# compound, reported-measurement
records = [
    ("O=C(NC1CC(=O)N(C2CC2)C1)c1ccc(Cl)s1 (centres undefined)", "9.05%"),
    ("C[S+](C)[c-]1c(=O)[nH]c(=O)n(CCc2ccc(F)cc2)c1=O", "2.86%"),
    ("O=S(=O)(NCCC(O)c1cccs1)c1c(F)cccc1F (centres undefined)", "-0.00815%"),
]

Next, consider the following compound.
I have this compound here, CN1CCCN(C(=O)c2cnc(C(C)(C)C)nc2O)CC1 , and I need its recorded cytotoxicity at 10 µM. -0.0816%

---

Experiment: Toxicity liver stage against HepG2, at 10uM
Type: cell-based
Set-up: test concentration 10 uM, cell line HepG2-A16-CD81EGFP
Settings: human, HepG2-A16-CD81EGFP cells; read-out: INHIBITION
# key: entry, value: cytotoxicity at 10 µM
Give the number; % is assumed, so skip it.

# compound, cytotoxicity at 10 µM / %
records = [
    ("Cc1nn(C)cc1-c1cc(C(F)F)n2nc(CCC(=O)O)nc2n1", -5.44),
    ("COc1cc(C)ccc1OCC(=O)NS(=O)(=O)c1cccnc1", 4.03),
    ("Cc1ccc(-n2nnc(C(=O)NCC(F)(F)F)c2C2CC2)cc1", -6.94),
    ("Cn1cnnc1C1CCN(C(=O)CCCOc2ccccc2F)CC1", -6.26),
    ("CCCc1n[nH]c(C2CN(C(=O)Cn3ccccc3=O)CCO2)n1 (centres undefined)", -1.33),
    ("COc1ccc(CC2CN(Cc3cncn3C)CCO2)cc1 (centres undefined)", 0.328),
    ("CCCn1cc(NC(=O)c2cccc3cccnc23)ccc1=O", -4.73),
    ("COc1ccccc1C(=O)N1CC(=O)N(C2CCCCC2)CC(O)C1 (centres undefined)", -3.09),
]

Next, consider the following compound.
I have this compound here, CN1CCOC(CN(C(=O)Cc2ccccc2F)c2nccs2)C1 (centres undefined) , and I need its recorded cytotoxicity at 10 µM. -11.7
